- Tested on: Candida glabrata 20/I
- procedure_text: In vitro antifungal broth microdilution test
- Format: cell-based
- particulars: Nakaseomyces glabratus, 20/I; 24h, RPMI 1640, pH 7.0, 35 °C; read-out: MIC/IC80 CG
The entries below are paired with their reported MIC.
Field format: number, assumed µM, no unit text.

OC(Cn1cncn1)(Cn1cncn1)c1ccc(F)cc1F [FLU, Fluconazole, reference compound]    0.98

Turning now to a further record.
Consider O=C(O)c1ccc2[nH]c(=O)cc(O)c2c1O [Compound 3] . Its measured MIC is 250

====

- Test system: Candida glabrata 20/I
- procedure_text: In vitro antifungal broth microdilution test
- Assay type: cell-based
- particulars: Nakaseomyces glabratus, 20/I; 24h, RPMI 1640, pH 7.0, 35 °C; read-out: MIC/IC80 CG
Recorded MIC by entry

O=C(O)c1cc2c(O)cc(=O)[nH]c2cc1O [Compound 4]    62.5 µM
O=C(O)c1c(O)c2ccccc2[nH]c1=O [Compound 10]    > 500 µM
O=C(/C=C/c1ccccc1)Nc1c(O)c2ccccc2[nH]c1=O [Compound 7]    > 125 µM
Nc1c(O)c2ccccc2[nH]c1=O [Compound 6, 3-Amino-4-hydroxyquinolin-2(1H)-one]    > 500 µM
O=C(O)c1ccc2[nH]c(=O)c(/N=N/c3cc(Cl)c([N+](=O)[O-])cc3Cl)c(O)c2c1 [Compound 8]    250 µM

Kindly note the recorded MIC for O=C(O)c1ccc(NC(=O)c2c(O)c3cc(C(=O)O)ccc3[nH]c2=O)cc1 [Compound 11] , which is > 500 µM

# MIC (compound: CCOC(=O)c1c(O)c2ccccc2[nH]c1=O [Compound 9] ) is > 500 µM

Ref: paper PMC6253998
